Test system: K-562
Test: SRB colorimetric assay of cell growth and viability, K-562
Format: cell-based, human
Details: 48 hours exposure, SRB; read-out: LC50 K-562
Where a SMILES comes first, the peptide text is derived from it. Bridges are numbered along the chain shown (N, C = ends). [ ]: non-standard residue; d: D form. The star is where a group is joined. d(aIle) = CC[C@H](C)[C@@H](N)C(=O)O; d(aThr) = C[C@@H](O)[C@@H](N)C(=O)O; Hexanoyl(5-Me) = CC(C)CCCC(=O)*; Orn = NCCC[C@H](N)C(=O)O; Dhb = C/C=C(\N)C(=O)O
measured.metric: CC50

>>> result("C/C=C1\\NC(=O)[C@@H](Cc2ccccc2)NC(=O)[C@H](C(C)C)NC(=O)[C@H]([C@H](C)CC)NC(=O)[C@@H](NC(=O)[C@@H](NC(=O)[C@@H](CCCN)NC(=O)[C@@H]2CCCN2C(=O)[C@@H](NC(=O)[C@H](NC(=O)[C@H](NC(=O)[C@@H](NC(=O)CCCC(C)C)C(C)C)[C@H](C)O)C(C)C)C(C)C)[C@H](C)CC)[C@H](C)OC(=O)[C@@H](C(C)C)NC1=O")
"≥ 6.77 µM"
>>> result("CC[C@H](C)[C@@H](NC(=O)[C@H](CCCN)NC(=O)[C@H]1CCCN1C(=O)[C@H](NC(=O)[C@@H](NC(=O)[C@@H](NC(=O)[C@H](NC(=O)CCCC(C)C)C(C)C)[C@@H](C)O)C(C)C)C(C)C)C(=O)N[C@H]1C(=O)N[C@H]([C@@H](C)CC)C(=O)N[C@H](C(C)C)C(=O)N[C@@H](Cc2ccccc2)C(=O)NCC(=O)N[C@@H](C(C)C)C(=O)O[C@@H]1C [Compound 65, [Gly^2]-KF] ({Hexanoyl(5-Me)}-[dV]TV[dV][dP][Orn][d(aIle)][d(aThr)][d(aIle)][dV]FGV; ester 8-C)")
"≥ 6.89 µM"
>>> result("C/C=C1\\NC(=O)[C@H](Cc2ccccc2)NC(=O)[C@@H](C(C)C)NC(=O)[C@@H]([C@@H](C)CC)NC(=O)[C@H](NC(=O)[C@H](NC(=O)[C@H](CCCN)NC(=O)[C@H]2CCCN2C(=O)[C@H](NC(=O)[C@@H](NC(=O)[C@H](CCCN)NC(=O)CCCC(C)C)C(C)C)C(C)C)[C@@H](C)CC)[C@@H](C)OC(=O)[C@H](C(C)C)NC1=O [Compound 57, [Orn^12, noD-Val^13]-KF] ({Hexanoyl(5-Me)}-[Orn]V[dV][dP][Orn][d(aIle)][d(aThr)][d(aIle)][dV]F[Dhb]V; ester 7-C)")
"≥ 7.18 µM"

---

We begin with a simple list: items and their reported TGI MEL-28.
Tested on: SK-MEL-28
Assay: SRB colorimetric assay of cell growth and viability, SK-MEL-28
Type: cell-based, human
Conditions: 48 hours exposure
Where a SMILES comes first, the peptide text is derived from it. Bridges are numbered along the chain shown (N, C = ends). [ ]: non-standard residue; d: D form. The star is where a group is joined. d(aIle) = CC[C@H](C)[C@@H](N)C(=O)O; d(aThr) = C[C@@H](O)[C@@H](N)C(=O)O; Hexanoyl(5-Me) = CC(C)CCCC(=O)*; Orn = NCCC[C@H](N)C(=O)O; Dhb = C/C=C(\N)C(=O)O
measured.metric: TGI MEL-28 (Molar)

>>> quantitative_result("C/C=C1\\NC(=O)[C@H](Cc2ccccc2)NC(=O)[C@@H](C(C)C)NC(=O)[C@@H]([C@@H](C)CC)NC(=O)[C@H](NC(=O)[C@H](NC(=O)[C@H](CCCN)NC(=O)[C@H]2CCCN2C(=O)[C@H](NC(=O)[C@@H](NC(=O)[C@@H](NC(=O)[C@@H](NC(=O)CCCC(C)C)C(C)C)[C@@H](C)O)C(C)C)C(C)C)[C@@H](C)CC)[C@@H](C)OC(=O)[C@H](C(C)C)NC1=O [Compound 38, [Val^13]-KF]")
"1.68E−06"
>>> quantitative_result("C/C=C1\\NC(=O)[C@H](Cc2ccccc2)NC(=O)[C@@H](C(C)C)NC(=O)[C@@H]([C@@H](C)CC)NC(=O)[C@H](NC(=O)[C@H](NC(=O)[C@H](CCCN)NC(=O)[C@H]2CCCN2C(=O)[C@H](NC(=O)[C@@H](NC(=O)[C@H](CCC(N)=O)NC(=O)CCCC(C)C)C(C)C)C(C)C)[C@@H](C)CC)[C@@H](C)OC(=O)[C@H](C(C)C)NC1=O [Compound 58, [Gln^12, noD-Val^13]-KF] ({Hexanoyl(5-Me)}-QV[dV][dP][Orn][d(aIle)][d(aThr)][d(aIle)][dV]F[Dhb]V; ester 7-C)")
"7.11E−06"
>>> quantitative_result("C/C=C1\\NC(=O)[C@H](Cc2ccccc2)NC(=O)[C@@H](C(C)C)NC(=O)[C@@H]([C@@H](C)CC)NC(=O)[C@H](NC(=O)[C@H](NC(=O)[C@H](CCCN)NC(=O)[C@H]2CCCN2C(=O)[C@H](NC(=O)[C@@H](NC(=O)[C@@H](NC(=O)[C@H](NC(=O)CCCC(C)C)C(C)C)[C@@H](C)O)C(C)C)C(C)C)[C@@H](C)CC)[C@H](C)OC(=O)[C@H](C(C)C)NC1=O [Compound 2, [D-Thr^6]-KF]")
"6.77E−06"

---

Test system: HT-29
Assay: SRB colorimetric assay of cell growth and viability, HT-29
Format: cell-based, human
Details: 48 hours exposure
Where a SMILES comes first, the peptide text is derived from it. Bridges are numbered along the chain shown (N, C = ends). [ ]: non-standard residue; d: D form. The star is where a group is joined. d(aIle) = CC[C@H](C)[C@@H](N)C(=O)O; d(aThr) = C[C@@H](O)[C@@H](N)C(=O)O; Hexanoyl(5-Me) = CC(C)CCCC(=O)*; Orn = NCCC[C@H](N)C(=O)O; Dhb = C/C=C(\N)C(=O)O
Reported values of TGI HT-29 for individual entries
measured.metric: TGI HT-29 (Molar)

>>> quantitative_result("C/C=C1\\NC(=O)[C@H](Cc2ccccc2)NC(=O)[C@@H](C(C)C)NC(=O)[C@@H]([C@@H](C)CC)NC(=O)[C@H](NC(=O)[C@H](NC(=O)[C@H](CCCN)NC(=O)[C@H]2CCCN2C(=O)[C@H](NC(=O)[C@@H](NC(=O)[C@@H](NC(=O)[C@H](NC(=O)Cc2cc(F)cc(F)c2)C(C)C)[C@@H](C)O)C(C)C)C(C)C)[C@@H](C)CC)[C@@H](C)OC(=O)[C@H](C(C)C)NC1=O [Compound 22, [3,5-dFPhAc^14]-KF]")
"1.94E−06"
>>> quantitative_result("C/C=C1\\NC(=O)[C@H](Cc2ccccc2)NC(=O)[C@@H](C(C)C)NC(=O)[C@@H]([C@@H](C)CC)NC(=O)[C@H](NC(=O)[C@H](NC(=O)[C@H](CCCN)NC(=O)[C@H]2CCCN2C(=O)[C@H](NC(=O)[C@H](CCC(N)=O)NC(=O)[C@@H](NC(=O)[C@H](NC(=O)CCCC(C)C)C(C)C)[C@@H](C)O)C(C)C)[C@@H](C)CC)[C@@H](C)OC(=O)[C@H](C(C)C)NC1=O [Compound 48, [Gln^11]-KF] ({Hexanoyl(5-Me)}-[dV]TQ[dV][dP][Orn][d(aIle)][d(aThr)][d(aIle)][dV]F[Dhb]V; ester 8-C)")
"6.64E−06"
>>> quantitative_result("C/C=C1\\NC(=O)[C@H](Cc2ccccc2)NC(=O)[C@@H](C(C)C)NC(=O)[C@@H]([C@@H](C)CC)NC(=O)[C@H](NC(=O)[C@H](NC(=O)[C@H](CCCN)NC(=O)[C@H]2CCCN2C(=O)[C@H](NC(=O)[C@H](Cc2ccccc2)NC(=O)[C@@H](NC(=O)[C@H](NC(=O)CCCC(C)C)C(C)C)[C@@H](C)O)C(C)C)[C@@H](C)CC)[C@@H](C)OC(=O)[C@H](C(C)C)NC1=O [Compound 43, [Phe^11]-KF] ({Hexanoyl(5-Me)}-[dV]TF[dV][dP][Orn][d(aIle)][d(aThr)][d(aIle)][dV]F[Dhb]V; ester 8-C)")
"2.73E−07"
>>> quantitative_result("C/C=C1\\NC(=O)[C@H](Cc2ccccc2)NC(=O)[C@@H](C(C)C)NC(=O)[C@@H](C(C)C)NC(=O)[C@H](NC(=O)[C@H](NC(=O)[C@H](CCCN)NC(=O)[C@H]2CCCN2C(=O)[C@H](NC(=O)[C@@H](NC(=O)[C@@H](NC(=O)[C@H](NC(=O)CCCC(C)C)C(C)C)[C@@H](C)O)C(C)C)C(C)C)C(C)C)[C@@H](C)OC(=O)[C@H](C(C)C)NC1=O [Compound 12, [D-Val^5, D-Val^7]-KF] ({Hexanoyl(5-Me)}-[dV]TV[dV][dP][Orn][dV][d(aThr)][dV][dV]F[Dhb]V; ester 8-C)")
"2.51E−06"
>>> quantitative_result("C/C=C1\\NC(=O)[C@H](Cc2ccccc2)NC(=O)[C@@H](C(C)C)NC(=O)[C@@H]([C@@H](C)CC)NC(=O)[C@H](NC(=O)[C@H](NC(=O)[C@H](CCCN)NC(=O)[C@H]2CCCN2C(=O)[C@H](NC(=O)[C@@H](NC(=O)[C@@H](NC(=O)[C@H](NC(=O)CCCC(C)C)C(C)C)[C@@H](C)O)C(C)C)C(C)C)[C@@H](C)CC)COC(=O)[C@H](C(C)C)NC1=O [Compound 3, [D-Ser^6]-KF] ({Hexanoyl(5-Me)}-[dV]TV[dV][dP][Orn][d(aIle)][dS][d(aIle)][dV]F[Dhb]V; ester 8-C)")
"1.22E−06"

Each recorded value in this set is attributed to patent US20070117743A1.
